Attribute: ΔΔCT(CMV001)
tested on: PD-1; assay: PD-1 Taqman; type: cell-based, human; settings: Donor CMV001; relative to No Pep
Would you mind answering with just the numeric figure?

Example entries begin here.
SGKLFMHVTLGSDVE [5DR, human CMV pp65-derived class II peptide, Human (DRB1)] = −1.55
MISVLGPISGHVLKA [2DR, human CMV pp65-derived class II peptide, Human (DRB1)] = −0.075
DVYYTSAFVFPTKDV [4DR] = −3.915
HVRVSQPSLILVSQY [3DR, human CMV pp65-derived class II peptide, Human (DRB1)] = −2.535

Give PD-1 ΔΔCT(CMV001) for MSIYVYALPLKMLNI [1DR, human CMV pp65-derived class II peptide, Human (DRB1)]
−1.445
